Species on record: Rattus norvegicus
Assay: Effective concentration in vitro as electropharmacological activity in the rat cortical wedge preparation
Type: functional
Reported EC50 values for a set of molecules

Molecule	Reading qualifier	EC50, µM
NC1(C(=O)O)CCCCc2onc(O)c21 (stereo not drawn)	=	2500
CNC(C(=O)O)c1c(C)o[nH]c1=O (stereo not drawn)	=	70
CSC(C(=O)O)c1c(O)noc1C (stereo not drawn)	>	5000

---

Species: Rattus norvegicus
Test: Effective concentration in vitro as electropharmacological activity in the rat cortical wedge preparation
Format: functional
The reader will find reported log10 of EC50 values listed item by item below.
Observation type: log10 of EC50 (log10 of the value in µM)

Molecule	log10 of EC50
NC(Cc1c(O)noc1CBr)C(=O)O (configuration not stated)	1.11
CC(C)(C)c1onc(O)c1CC(N)C(=O)O (configuration not stated)	1.68
NC(Cc1c(O)noc1CO)C(=O)O (configuration not stated)	2.04
NC(C(=O)O)c1c(O)noc1CO (configuration not stated)	0.90
Cc1o[nH]c(=O)c1C(N)C(=O)O (configuration not stated)	0.63
O=C(O)c1cccnc1C(=O)O	3.18

---

Each record here notes measured IC50.
Target: Glutamate receptor ionotropic, AMPA (Rattus norvegicus, UniProt P19490+P19491+P19492+P19493)
Experiment: Tested in vitro for the concentration required to inhibit [3H]AMPA radioligand at EAA receptor sites in rat cortical membranes
Type: cell membranes
Observation type: IC50

Compound	Observation type	Result
CC(C)(C)c1onc(O)c1C(N)C(=O)O (centres undefined)	IC50	> 100 µM
NC(Cc1c(O)noc1CO)C(=O)O (centres undefined)	IC50	0.4 µM
CSC(C(=O)O)c1c(O)noc1C (centres undefined)	IC50	> 100 µM
CNC(C(=O)O)c1c(C)o[nH]c1=O (centres undefined)	IC50	> 100 µM
NC1(C(=O)O)CCCCc2onc(O)c21 (centres undefined)	IC50	> 100 µM
COC(C(=O)O)c1c(O)noc1C (centres undefined)	IC50	> 100 µM
O=C(O)c1cccnc1C(=O)O	IC50	> 100 µM
Cc1o[nH]c(=O)c1C(N)C(=O)O (centres undefined)	IC50	> 100 µM
NC(C(=O)O)c1c(O)noc1CO (centres undefined)	IC50	> 100 µM

---

Target: Glutamate NMDA receptor
Assay: Stimulation of [3H]-MK-801 binding to EAA receptor sites in rat cortical membranes

Compound	EC50
NC(Cc1c(O)noc1CBr)C(=O)O (stereo not given)	> 100 µM
Cc1o[nH]c(=O)c1C(N)C(=O)O (stereo not given)	0.45 µM
NC(C(=O)O)c1c(O)noc1CO (stereo not given)	5 µM
CC(C)(C)c1onc(O)c1C(N)C(=O)O (stereo not given)	> 100 µM
CSC(C(=O)O)c1c(O)noc1C (stereo not given)	> 100 µM
NC1(C(=O)O)CCCCc2onc(O)c21 (stereo not given)	> 100 µM
CNC(C(=O)O)c1c(C)o[nH]c1=O (stereo not given)	50 µM
NC(Cc1c(O)noc1CO)C(=O)O (stereo not given)	> 100 µM
COC(C(=O)O)c1c(O)noc1C (stereo not given)	> 100 µM
CC(C)(C)c1onc(O)c1CC(N)C(=O)O (stereo not given)	> 100 µM
